tested on: MCF7; test: Cytotoxicity against human MCF7 cells assessed as cell viability after 72 hrs by MTT assay; assay type: functional, cell-based; settings: MCF7, 72 h
result.type: IC50

Consider the compound "O=C1C(Br)=C(NCc2cn(CCCN3C(=O)c4ccccc4C3=O)nn2)C(=O)c2ccccc21" . State its measured IC50.
> 9 µM

Consider the compound "O=C1C=C(NCc2cn(CCCN3C(=O)c4ccccc4C3=O)nn2)C(=O)c2ccccc21" . State its measured IC50.
> 11 µM

Consider the compound "O=C1C(Cl)=C(NCc2cn(CN3C(=O)c4ccccc4C3=O)nn2)C(=O)c2ccccc21" . State its measured IC50.
> 11 µM

Consider the compound "O=C1C=C(NCc2cn(CN3C(=O)c4ccccc4C3=O)nn2)C(=O)c2ccccc21" . State its measured IC50.
> 12 µM

Consider the compound "O=C1C=C(NCc2cn(CCCCN3C(=O)c4ccccc4C3=O)nn2)C(=O)c2ccccc21" . State its measured IC50.
> 10 µM

* * *

Assignment: determine reported pIC50 for the given compounds.
test: Cytotoxicity against human HCT8 cells assessed as cell viability after 72 hrs by MTT assay; type: functional, cell-based; conditions: HCT-8, 72 h
pIC50: −log10 of the molar value.

Consider the compound "O=C1C=C(NCc2cn(-c3cccc([N+](=O)[O-])c3)nn2)C(=O)c2ccccc21" . State its measured pIC50.
< 4.89

Consider the compound "O=C1C(Cl)=C(NCc2cn(CCN3C(=O)c4ccccc4C3=O)nn2)C(=O)c2ccccc21" . State its measured pIC50.
< 5.00

Consider the compound "O=C1C(Br)=C(NCc2cn(CCCN3C(=O)c4ccccc4C3=O)nn2)C(=O)c2ccccc21" . State its measured pIC50.
< 5.05

Consider the compound "O=C1C(Cl)=C(NCc2cn(CN3C(=O)c4ccccc4C3=O)nn2)C(=O)c2ccccc21" . State its measured pIC50.
< 4.96

* * *

tested on: SF-295; assay: Cytotoxicity against human SF295 cells assessed as cell viability after 72 hrs by MTT assay; assay type: functional, cell-based; conditions: SF-295, 72 h
result.type: IC50

Give SF-295 IC50 for the following compound: "O=C1C(Cl)=C(NCc2cn(CCCCN3C(=O)c4ccccc4C3=O)nn2)C(=O)c2ccccc21"
> 10 µM

Give SF-295 IC50 for the following compound: "O=C1C(Cl)=C(NCc2cn(CN3C(=O)c4ccccc4C3=O)nn2)C(=O)c2ccccc21"
> 11 µM

Give SF-295 IC50 for the following compound: "O=C1C=C(NCc2cn(CCCCN3C(=O)c4ccccc4C3=O)nn2)C(=O)c2ccccc21"
> 10 µM

Give SF-295 IC50 for the following compound: "O=C1C(Br)=C(NCc2cn(CCCN3C(=O)c4ccccc4C3=O)nn2)C(=O)c2ccccc21"
> 9 µM

Give SF-295 IC50 for the following compound: "O=C1C=C(n2cc(CNC3=C(Br)C(=O)c4ccccc4C3=O)nn2)C(=O)c2ccccc21"
> 10 µM

* * *

tested on: MCF7; experiment: Cytotoxicity against human MCF7 cells assessed as cell viability after 72 hrs by MTT assay; format: functional, cell-based; conditions: MCF7, 72 h
pIC50: −log10 of the molar value.
result.type: pIC50

Consider the compound "O=C1C(Br)=C(NCc2cn(CN3C(=O)c4ccccc4C3=O)nn2)C(=O)c2ccccc21" . State its measured pIC50.
< 5.00

Consider the compound "O=C1C=C(NCc2cn(-c3cccc([N+](=O)[O-])c3)nn2)C(=O)c2ccccc21" . State its measured pIC50.
< 4.89

Consider the compound "O=C1C=C(n2cc(CNC3=C(Br)C(=O)c4ccccc4C3=O)nn2)C(=O)c2ccccc21" . State its measured pIC50.
< 5.00

Consider the compound "O=C1C(Cl)=C(NCc2cn(CCN3C(=O)c4ccccc4C3=O)nn2)C(=O)c2ccccc21" . State its measured pIC50.
< 5.00

Consider the compound CC1(C)CC(Nc2ccc([N+](=O)[O-])cc2)C2=C(O1)C(=O)c1ccccc1C2=O (stereo not drawn) . State its measured pIC50.
5.15

Consider the compound "O=C1C=C(NCc2cn(CCN3C(=O)c4ccccc4C3=O)nn2)C(=O)c2ccccc21" . State its measured pIC50.
< 4.96

Consider the compound "O=C1C(Cl)=C(NCc2cn(CCCCN3C(=O)c4ccccc4C3=O)nn2)C(=O)c2ccccc21" . State its measured pIC50.
< 5.00

Consider the compound CCCCCCc1cn(C2C3=C(OC2(C)C)C(=O)c2ccccc2C3=O)nn1 (stereo not drawn) . State its measured pIC50.
5.03

Consider the compound CC1(C)CC(Nc2cccc(Br)c2)C2=C(O1)C(=O)c1ccccc1C2=O (stereo not drawn) . State its measured pIC50.
5.00

Consider the compound CC(=O)OC[C@H]1OC(n2cc(CNC3=CC(=O)c4ccccc4C3=O)nn2)[C@H](OC(C)=O)[C@@H](OC(C)=O)[C@@H]1OC(C)=O (single isomer, unassigned) . State its measured pIC50.
< 5.10

Consider the compound "O=C1C(Br)=C(NCc2cn(-c3cccc([N+](=O)[O-])c3)nn2)C(=O)c2ccccc21" . State its measured pIC50.
< 4.96

Consider the compound "O=C1C(Cl)=C(NCc2cn(CCCN3C(=O)c4ccccc4C3=O)nn2)C(=O)c2ccccc21" . State its measured pIC50.
< 5.00

Consider the compound CC1(C)OC2=C(C(=O)c3ccccc3C2=O)C1n1cc(C2CCCCC2)nn1 (stereo not drawn) . State its measured pIC50.
5.24

Consider the compound CC1(C)OC2=C(C(=O)c3ccccc3C2=O)C1Sc1ccccc1 (stereo not drawn) . State its measured pIC50.
5.13

Consider the compound CC1(C)CC(Nc2cccc(F)c2)C2=C(O1)C(=O)c1ccccc1C2=O (stereo not drawn) . State its measured pIC50.
5.16

Consider the compound "O=C1C(Br)=C(NCc2cn(CCN3C(=O)c4ccccc4C3=O)nn2)C(=O)c2ccccc21" . State its measured pIC50.
< 5.05

Consider the compound CC1(C)CC(n2cc(C3CCCCC3)nn2)C2=C(O1)C(=O)c1ccccc1C2=O (stereo not drawn) . State its measured pIC50.
< 4.92

Consider the compound "O=C1C=C(NCc2cn(C3=CC(=O)c4ccccc4C3=O)nn2)C(=O)c2ccccc21" . State its measured pIC50.
5.44

* * *

Assignment: determine reported IC50 for the given molecules.
system: V79; assay: Cytotoxicity against chinese hamster V79 cells assessed as cell viability after 72 hrs by MTT assay; assay type: cell-based; conditions: Cricetulus griseus, V79, 72 h

Consider the molecule "O=C1C(Br)=C(NCc2cn(CN3C(=O)c4ccccc4C3=O)nn2)C(=O)c2ccccc21" . State its measured IC50.
> 10 µM

Consider the molecule CC(=O)OC[C@H]1OC(n2cc(CNC3=CC(=O)c4ccccc4C3=O)nn2)[C@H](OC(C)=O)[C@@H](OC(C)=O)[C@@H]1OC(C)=O (single isomer, unassigned) . State its measured IC50.
> 8 µM

Consider the molecule "O=C1C=C(NCc2cn(CCCCN3C(=O)c4ccccc4C3=O)nn2)C(=O)c2ccccc21" . State its measured IC50.
> 10 µM

Consider the molecule "O=C1C=C(n2cc(CNC3=C(Br)C(=O)c4ccccc4C3=O)nn2)C(=O)c2ccccc21" . State its measured IC50.
> 10 µM

* * *

experiment: Cytotoxicity against human HCT8 cells assessed as cell viability after 72 hrs by MTT assay; assay type: functional, cell-based; conditions: HCT-8, 72 h
pIC50: −log10 of the molar value.
result.type: pIC50

Consider the compound CC1(C)CC(Sc2ccccc2)C2=C(O1)C(=O)c1ccccc1C2=O (stereo not given) . State its measured pIC50.
< 4.85

Consider the compound "O=C1C(Br)=C(NCc2cn(CN3C(=O)c4ccccc4C3=O)nn2)C(=O)c2ccccc21" . State its measured pIC50.
< 5.00

Consider the compound "O=C1C=C(NCc2cn(CCN3C(=O)c4ccccc4C3=O)nn2)C(=O)c2ccccc21" . State its measured pIC50.
< 4.96

Consider the compound "O=C1C(Cl)=C(NCc2cn(CCCCN3C(=O)c4ccccc4C3=O)nn2)C(=O)c2ccccc21" . State its measured pIC50.
< 5.00

Consider the compound "O=C1C(Br)=C(NCc2cn(CCN3C(=O)c4ccccc4C3=O)nn2)C(=O)c2ccccc21" . State its measured pIC50.
< 5.05

Consider the compound "O=C1C(Cl)=C(NCc2cn(CCCN3C(=O)c4ccccc4C3=O)nn2)C(=O)c2ccccc21" . State its measured pIC50.
< 5.00

Consider the compound "O=C1C=C(NCc2cn(CCCN3C(=O)c4ccccc4C3=O)nn2)C(=O)c2ccccc21" . State its measured pIC50.
< 4.96

Consider the compound CCCCCCc1cn(C2C3=C(OC2(C)C)C(=O)c2ccccc2C3=O)nn1 (stereo not given) . State its measured pIC50.
5.27

Consider the compound CC1(C)CC(Nc2cccc(Br)c2)C2=C(O1)C(=O)c1ccccc1C2=O (stereo not given) . State its measured pIC50.
< 4.92

Consider the compound CC1(C)CC(Nc2cccc([N+](=O)[O-])c2)C2=C(O1)C(=O)c1ccccc1C2=O (stereo not given) . State its measured pIC50.
5.19

Consider the compound "O=C1C(Br)=C(NCc2cn(-c3cccc([N+](=O)[O-])c3)nn2)C(=O)c2ccccc21" . State its measured pIC50.
< 4.96

Consider the compound CC(=O)OC[C@H]1OC(n2cc(CNC3=CC(=O)c4ccccc4C3=O)nn2)[C@H](OC(C)=O)[C@@H](OC(C)=O)[C@@H]1OC(C)=O (single isomer, unassigned) . State its measured pIC50.
< 5.10

Consider the compound CC1(C)OC2=C(C(=O)c3ccccc3C2=O)C1n1cc(C2CCCCC2)nn1 (stereo not given) . State its measured pIC50.
5.17

Consider the compound CC1(C)CC(Nc2ccc([N+](=O)[O-])cc2)C2=C(O1)C(=O)c1ccccc1C2=O (stereo not given) . State its measured pIC50.
5.30

Consider the compound "O=C1C=C(NCc2cn(CN3C(=O)c4ccccc4C3=O)nn2)C(=O)c2ccccc21" . State its measured pIC50.
< 4.92
